test: small-molecule binders of probe aNOTCH2, primary screen, biochemical, small-molecule microarray, 635/667 nm fluorescence (AID 1121); conditions: higher = more signal;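 further: score merges feature fluorescence read at 667 nm with its signal to noise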
I'd be grateful if you could share measured composite z-score for these entries.
Give bare numbers.

Would you please look over these solved cases?
Compound	composite z-score
CCN(CC)c1ccc(N2CC=CC34O[C@@H]5C=CCOC(=O)[C@@H]5[C@H]3C(=O)N(CCO)[C@@H]4C2=O)cc1 (some centres not stated)	-0.24
C=CCNC(=O)[C@H]1[C@@H]2C(=O)O[C@@H](c3ccccc3)[C@@H](c3ccccc3)N2[C@@H](c2ccccc2OCCO)[C@]12C(=O)N(C(=O)OCCOC)c1ccccc12	-0.153
[N-]=[N+]=NCc1ccccc1C[C@]1(C(=O)O)COC(c2ccc(OCCCO)cc2)=N1	-0.14

List the reported composite z-score of each compound below.
1. C=CCC(OC(C)=O)[C@@H]1[C@@H](N(Cc2cccc3ccccc23)C(=O)c2cccc3ccccc23)c2cc(OCCCO)ccc2N1C(=O)Cc1ccc2ccccc2c1 (some centres not stated)
2. Cc1c(NC(=O)/C(C#N)=C/c2ccc(Cl)cc2)c(=O)n(-c2ccccc2)n1C
3. Cc1c(-c2ccc(-c3ccc(Cl)c(Cl)c3)o2)nc(-c2ccccc2)c2c1CO[Si]2(C(C)C)C(C)C
4. CC(=O)NCCCC[C@@H]1NC(=O)[C@H]2C[C@@H](C(=O)NCCCCCC[N+](C)(C)C)[C@@H](c3ccc(O)cc3)N2C1=O

RESULT:
1. -0.147
2. -0.145
3. -0.148
4. -0.0556

###

test: small-molecule binders of probe aNOTCH3, primary screen, biochemical, small-molecule microarray, 635/667 nm fluorescence (AID 1120); details: higher = more signal;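 further: probe is a biotin-tagged antibody raised against NOTCH3 rather than NOTCH3 protein; score merges spot fluorescence near 667 nm with spot signal to noise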
Kind request: treat 0.04 as inclusive, so composite z-score at 0.04 or higher is class 1, anything lower is class 0.

Check out these entries, answers already filled in.
Compound	Class name
CN(C)CCCCNC(=O)[C@H]1C[C@H]2C(=O)NCC(=O)N2[C@H]1c1cccc(OCCO)c1	class 0
C=C(COC)C(=O)CC[C@@H](OC(C)=O)c1ccc(OCCO)cc1	class 1
NCCCC[C@@H]1NC(=O)[C@H]2C[C@@H](C(=O)O)[C@@H](c3cccc(OCCO)c3)N2C1=O	class 1
O=C1C2C=CC(C(O)C(c3ccccc3)c3ccccc3)N(Nc3ccccc3)C2C(=O)N1c1ccccc1 (centres undefined)	class 1
CC(C)C[C@@H]1NC(=O)C([C@@H](C)OCc2ccccc2)NC(=O)[C@@]23C(=O)N[C@@H](Cc4ccccc4)C2[C@H](C)[C@@]2(C)O[C@H]2C3/C=C/CC/C=C/CNC1=O (some centres undefined)	class 0

Next up:
QUERY: Quick check: does COCCOC(=O)N1C(=O)[C@@]2(c3cc(C#CCC(C(=O)OC)C(=O)OC)ccc31)[C@H](C(=O)N1CCCCCCC1)[C@H]1C(=O)O[C@H](c3ccccc3)[C@H](c3ccccc3)N1[C@@H]2c1ccccc1OCCO have composite z-score greater than or equal to 0.04?
RESULT: class 1

###

assay: binders of probe aFSTL3 on microarray, primary screen, stem cell growth factor project, biochemical, small-molecule microarray, fluorescence 635/667 (AID 1064); conditions: higher = more signal;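 further: measures binding of the biotinylated anti-FSTL3 antibody to printed compounds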
Quantity name: composite z-score

Completed entries (count: 2):
Molecule	composite z-score
O=C1O[C@H](c2ccccc2)[C@H](c2ccccc2)N2[C@H]1[C@@H](C(=O)NC[C@H](O)c1ccccc1)[C@]1(C(=O)Nc3ccc(C#CCCO)cc31)[C@H]2c1ccccc1OCCO	-0.211
C=CCC(OC(C)=O)[C@@H]1[C@@H](N(Cc2cccc3ccccc23)C(=O)c2ccc(-c3ccccc3)cc2)c2cc(OCCCO)ccc2N1C(=O)c1ccc2ccccc2n1 (stereo partly drawn)	-0.093

QUERY: composite z-score for COC(=O)[C@@]1(Cc2ccc(F)cc2)[C@H]2c3cc(C(=O)N4CCCC4)n(CCO)c3C[C@H]2CN1C(=O)c1ccccc1 ?
RESULT: 0.0451
